TARGET_OR_SYSTEM: Lck (Homo sapiens, UniProt P06239)
Construct: Kinases are expressed as either kinase domains or full length constructs; made in house
Sequence (P06239 whole entry, species assumed, the tested form may be a part): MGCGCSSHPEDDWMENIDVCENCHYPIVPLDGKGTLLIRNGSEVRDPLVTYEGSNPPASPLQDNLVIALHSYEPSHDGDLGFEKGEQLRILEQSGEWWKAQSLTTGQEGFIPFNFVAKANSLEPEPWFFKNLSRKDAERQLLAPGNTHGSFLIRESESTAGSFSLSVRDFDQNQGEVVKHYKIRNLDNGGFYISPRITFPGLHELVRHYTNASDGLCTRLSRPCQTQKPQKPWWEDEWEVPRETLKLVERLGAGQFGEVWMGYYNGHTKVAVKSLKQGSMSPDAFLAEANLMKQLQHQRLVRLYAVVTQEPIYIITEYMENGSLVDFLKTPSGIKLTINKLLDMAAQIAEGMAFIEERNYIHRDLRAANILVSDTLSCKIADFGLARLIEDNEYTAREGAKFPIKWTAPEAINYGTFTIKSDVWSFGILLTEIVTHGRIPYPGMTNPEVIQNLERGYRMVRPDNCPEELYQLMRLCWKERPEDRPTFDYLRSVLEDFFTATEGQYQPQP
EXPERIMENTAL_PROTOCOL: Kinase inhibition assay (33P transfer), Lck
Type: biochemical
RUN_PARAMETERS: Table 3, class symbols; read-out: Lck-1
OBSERVABLE: IC50

Query :: Sample Cc1ccc(-c2cc(Nc3ncnc(Nc4cc(C)ccc4C)n3)[nH]n2)cc1 — what was its IC50?
Result :: < 1.08 µM

Query :: Sample CN(c1cccc(Cl)c1)c1ncnc(Nc2ccc3nn(Cc4ccccc4)cc3c2)n1 — what was its IC50?
Result :: 5.43 to 7.92 µM

Query :: Sample FC(F)(F)Oc1cccc(Nc2ncnc(Nc3ccc4c(cnn4Cc4ccccc4)c3)n2)c1 — what was its IC50?
Result :: > 9.43 µM

Query :: Sample COc1cc(Nc2ncnc(Nc3cccc(Cl)c3)n2)cc(OC)c1 — what was its IC50?
Result :: 1.12 to 6.71 µM

Query :: Sample COC(=O)c1ccc(-c2cc(Nc3ncnc(NCCc4ccc(OC)cc4)n3)[nH]n2)cc1 — what was its IC50?
Result :: > 10.1 µM

Query :: Sample C#Cc1cccc(Nc2ncnc(Nc3cc(-c4ccccc4)n[nH]3)n2)c1 — what was its IC50?
Result :: 1.13 to 6.79 µM

Query :: Sample O=C(O)Cc1cccc(Nc2ncnc(-c3cccnc3NCc3ccccc3)n2)c1 — what was its IC50?
Result :: 0.97 to 5.82 µM

Query :: Sample COC(=O)c1ccc(-c2cc(Nc3ncnc(Nc4cccc5ncccc45)n3)[nH]n2)cc1 — what was its IC50?
Result :: > 10.3 µM

Query :: Sample COC(=O)c1ccc(N(C)c2ncnc(Nc3ccc(OC)c(OC)c3)n2)cc1 — what was its IC50?
Result :: > 11.4 µM

Query :: Sample Fc1cccc(CNc2nc3ccccc3n2-c2ncnc(Nc3cccc(Cn4ccnn4)c3)n2)c1 — what was its IC50?
Result :: 4.87 to 7.11 µM

Query :: Sample COC(=O)c1ccc(-c2cc(Nc3ncnc(NCc4ccco4)n3)[nH]n2)cc1 — what was its IC50?
Result :: > 11.5 µM

Query :: Sample COc1cc(Nc2ncnc(N3CCCc4c(Cl)cccc43)n2)cc(OC)c1OC — what was its IC50?
Result :: > 10.5 µM

Query :: Sample CN(c1cccc(Cl)c1)c1ncnc(Nc2cccc(Cn3ccnn3)c2)n1 — what was its IC50?
Result :: 1.02 to 6.11 µM

Query :: Sample COC(=O)c1ccc(-c2cc(Nc3ncnc(NCc4cccs4)n3)[nH]n2)cc1 — what was its IC50?
Result :: > 11 µM

Query :: Sample c1cc(Nc2ncnc(Nc3cc(-c4ccco4)[nH]n3)n2)cc(-c2cnco2)c1 — what was its IC50?
Result :: 1.04 to 6.21 µM

Query :: Sample COc1ccc(Nc2ncnc(Nc3ccc4c(c3)CCC4)n2)cc1OC — what was its IC50?
Result :: > 12.4 µM

Query :: Sample c1ccc(-c2cc(Nc3ncnc(Nc4cccc(-c5cnco5)c4)n3)[nH]n2)cc1 — what was its IC50?
Result :: 1.01 to 6.05 µM

Query :: Sample COc1cc(Nc2ncnc(-c3cccnc3NC3CCCCC3)n2)cc(OC)c1OC — what was its IC50?
Result :: 8.02 to 10.3 µM

Query :: Sample CCOc1cccc(Nc2ncnc(N3CCCc4cc(C)ccc43)n2)c1 — what was its IC50?
Result :: 1.11 to 6.64 µM

Query :: Sample CN(c1cccc(Cl)c1)c1ncnc(Nc2ccc3nn(C)cc3c2)n1 — what was its IC50?
Result :: 1.09 to 6.56 µM

Query :: Sample OCc1cccc(Nc2ncnc(-c3cccnc3NCc3ccccc3)n2)c1 — what was its IC50?
Result :: 1.04 to 6.24 µM

Query :: Sample COc1cc(C)c(Nc2ncnc(Nc3cc(-c4ccc(Cl)cc4)n[nH]3)n2)cc1OC — what was its IC50?
Result :: 0.913 to 5.48 µM

Query :: Sample c1ccc(CNc2nc3ccccc3n2-c2ncnc(Nc3cccc(Cn4ccnn4)c3)n2)cc1 — what was its IC50?
Result :: 0.843 to 5.06 µM

Query :: Sample COc1cc(Nc2ncnc(-c3cccnc3Nc3ccc(C(C)=O)cc3)n2)cc(OC)c1OC — what was its IC50?
Result :: > 9.52 µM

Query :: Sample OCc1cccc(Nc2ncnc(-c3cccnc3Nc3ccccc3)n2)c1 — what was its IC50?
Result :: 1.08 to 6.48 µM

Query :: Sample c1ccc(CNc2nc3ccccc3n2-c2ncnc(Nc3cccc(Cn4ccnn4)c3)n2)nc1 — what was its IC50?
Result :: 0.841 to 5.05 µM

Query :: Sample COc1cc(Nc2ncnc(-c3cccnc3NCc3cccc4ccccc34)n2)cc(OC)c1OC — what was its IC50?
Result :: > 9.1 µM

Query :: Sample COC(=O)c1ccc(-c2cc(Nc3ncnc(Nc4cc(=O)n(-c5ccccc5)[nH]4)n3)[nH]n2)cc1 — what was its IC50?
Result :: > 9.59 µM

Query :: Sample COc1cc(Nc2ncnc(-c3cccnc3NC3CCN(Cc4ccccc4)CC3)n2)cc(OC)c1OC — what was its IC50?
Result :: > 8.53 µM

// provenance: patent US7074789B2
